- system: 12-LOX mutant F414L (Homo sapiens, UniProt P18054, F414L)
- Construct: 6xHis (N); made in house; pFastBac1 shuttle vector
- Sequence (P18054 1-663 F414L): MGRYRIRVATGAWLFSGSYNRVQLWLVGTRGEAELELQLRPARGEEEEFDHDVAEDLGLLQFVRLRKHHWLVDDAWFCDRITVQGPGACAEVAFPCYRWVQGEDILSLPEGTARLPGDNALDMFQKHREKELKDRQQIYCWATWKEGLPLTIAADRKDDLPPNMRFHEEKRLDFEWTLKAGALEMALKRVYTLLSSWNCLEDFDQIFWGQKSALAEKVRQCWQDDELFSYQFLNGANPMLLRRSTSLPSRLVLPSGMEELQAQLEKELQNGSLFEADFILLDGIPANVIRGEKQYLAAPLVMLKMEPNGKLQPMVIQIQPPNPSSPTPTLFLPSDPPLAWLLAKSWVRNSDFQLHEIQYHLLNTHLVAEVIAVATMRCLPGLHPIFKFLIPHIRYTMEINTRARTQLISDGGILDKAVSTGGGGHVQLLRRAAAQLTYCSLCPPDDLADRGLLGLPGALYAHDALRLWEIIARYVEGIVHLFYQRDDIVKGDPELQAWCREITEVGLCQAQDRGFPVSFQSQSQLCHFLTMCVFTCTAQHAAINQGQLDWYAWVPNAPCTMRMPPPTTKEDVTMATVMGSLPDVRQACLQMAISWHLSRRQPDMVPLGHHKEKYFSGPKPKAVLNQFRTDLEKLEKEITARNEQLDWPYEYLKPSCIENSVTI
- test.details: UV-Vis-based IC50 assay, F414L mutant
- Format: biochemical
- condition.context: F414L
reported.metric: pIC50
One number for each entry, as −log10 of the molar value.

Given the compound COc1cccc(CNc2ccc(S(=O)(=O)Nc3nc4c(ccc5ccccc54)s3)cc2)c1O [Compound LOX-12-001] , write its reported pIC50.
6.74
